- EXPERIMENTAL SYSTEM: Sigma non-opioid intracellular receptor 1 (Rattus norvegicus, UniProt Q9R0C9)
- Sequence (Q9R0C9 whole entry): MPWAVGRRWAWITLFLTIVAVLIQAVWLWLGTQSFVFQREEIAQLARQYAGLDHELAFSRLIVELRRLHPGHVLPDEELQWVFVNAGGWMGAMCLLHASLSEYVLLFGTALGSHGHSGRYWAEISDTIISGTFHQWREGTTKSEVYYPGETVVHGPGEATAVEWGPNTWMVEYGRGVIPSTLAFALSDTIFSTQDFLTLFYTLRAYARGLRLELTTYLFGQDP
- PROTOCOL NOTES: Displacement of [3H]Pentazocine from rat sigma 1 receptor
MEASURED QUANTITY: Ki (µM)

1) CCOC(=O)[C@@]12C[C@@H]1[C@@H](n1cnc3c(NC)nc(C#Cc4ccc(Cl)s4)cc31)[C@H](O)[C@@H]2O ... 1.04

* * *

- EXPERIMENTAL SYSTEM: Sodium-dependent dopamine transporter (Homo sapiens, UniProt Q01959)
- Sequence (Q01959 whole entry): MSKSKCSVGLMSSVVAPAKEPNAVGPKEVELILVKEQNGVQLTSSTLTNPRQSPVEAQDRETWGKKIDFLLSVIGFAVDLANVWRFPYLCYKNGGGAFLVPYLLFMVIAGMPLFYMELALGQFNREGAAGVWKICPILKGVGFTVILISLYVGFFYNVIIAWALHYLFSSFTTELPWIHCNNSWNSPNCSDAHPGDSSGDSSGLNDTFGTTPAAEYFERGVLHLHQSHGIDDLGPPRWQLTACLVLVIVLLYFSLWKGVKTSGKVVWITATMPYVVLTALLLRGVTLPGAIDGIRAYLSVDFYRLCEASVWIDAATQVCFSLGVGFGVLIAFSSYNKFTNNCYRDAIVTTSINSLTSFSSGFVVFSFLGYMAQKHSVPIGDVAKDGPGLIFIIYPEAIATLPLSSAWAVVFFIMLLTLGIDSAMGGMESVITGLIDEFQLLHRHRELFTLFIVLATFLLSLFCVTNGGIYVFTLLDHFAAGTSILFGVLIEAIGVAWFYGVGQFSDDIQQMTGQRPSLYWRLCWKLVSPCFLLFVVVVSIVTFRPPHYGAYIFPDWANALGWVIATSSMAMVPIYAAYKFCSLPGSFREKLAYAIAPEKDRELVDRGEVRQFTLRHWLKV
- PROTOCOL NOTES: Enhancing of [3H]WIN35,428 binding to recombinant human DAT expressed in HEK293 cell membranes pre-incubated for 10 mins before radioligand addition and measured 90 mins after radioligand addition by micro beta scintillation counting analysis relative to control
MEASURED QUANTITY: EC50

1. CCOC(=O)[C@@]12C[C@@H]1[C@@H](n1cnc3c(NC)nc(C#Cc4ccc(Br)s4)nc31)[C@H](O)[C@@H]2O ... 400 nM
2. CCCNc1nc(C#Cc2ccc(Cl)s2)nc2c1ncn2[C@H]1[C@H](O)[C@H](O)[C@]2(C(=O)NC)C[C@H]12 ... > 1000 nM
3. CNc1nc(C#Cc2ccc(Cl)s2)nc2c1ncn2[C@H]1[C@H](O)[C@H](O)[C@]2(C(=O)NCCN)C[C@H]12 ... > 1000 nM
4. CNc1nc(C#Cc2ccc(Cl)s2)nc2c1ncn2[C@H]1[C@H](O)[C@H](O)[C@]2(C(=O)O)C[C@H]12 ... > 1000 nM
5. CCCNc1nc(C#Cc2ccc(Cl)s2)nc2c1ncn2[C@@H]1O[C@H](C(=O)NC)[C@@H](O)[C@H]1O ... > 1000 nM
6. CNc1nc(C#Cc2ccc(Cl)s2)nc2c1ncn2[C@H]1[C@H](O)[C@H](O)[C@]2(C(=O)OC(C)C)C[C@H]12 ... > 1000 nM
7. CCCCOC(=O)[C@@]12C[C@@H]1[C@@H](n1cnc3c(NC)nc(C#Cc4ccc(Cl)s4)nc31)[C@H](O)[C@@H]2O ... 1200 nM

* * *

- EXPERIMENTAL SYSTEM: UniProt Q61327
- Sequence (Q61327 whole entry): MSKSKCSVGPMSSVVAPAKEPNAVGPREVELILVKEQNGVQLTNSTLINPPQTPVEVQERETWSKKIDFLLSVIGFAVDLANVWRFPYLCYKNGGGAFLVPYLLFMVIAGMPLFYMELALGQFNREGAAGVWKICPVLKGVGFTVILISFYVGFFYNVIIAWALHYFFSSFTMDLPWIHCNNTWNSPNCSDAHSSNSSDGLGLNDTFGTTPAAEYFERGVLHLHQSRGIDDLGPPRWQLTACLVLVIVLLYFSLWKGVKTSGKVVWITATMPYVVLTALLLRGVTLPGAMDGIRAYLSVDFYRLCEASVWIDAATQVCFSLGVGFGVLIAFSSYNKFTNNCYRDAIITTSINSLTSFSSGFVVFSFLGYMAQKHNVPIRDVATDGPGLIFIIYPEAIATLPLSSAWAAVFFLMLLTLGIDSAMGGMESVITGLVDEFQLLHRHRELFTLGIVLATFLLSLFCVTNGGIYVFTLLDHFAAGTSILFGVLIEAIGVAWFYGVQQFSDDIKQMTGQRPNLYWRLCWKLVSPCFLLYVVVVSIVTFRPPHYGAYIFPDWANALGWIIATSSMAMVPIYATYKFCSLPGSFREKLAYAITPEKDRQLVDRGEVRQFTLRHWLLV
pKi: −log10 of the molar value.
MEASURED QUANTITY: pKi

1) COC(=O)[C@H]1[C@@H](OC(=O)c2ccccc2)C[C@@H]2CC[C@H]1N2C ... 6.07

* * *

- EXPERIMENTAL SYSTEM: Sodium-dependent dopamine transporter (Homo sapiens, UniProt Q01959)
- PROTOCOL NOTES: Enhancing of [125I]RTI-55 binding to recombinant human DAT expressed in HEK293 cell membranes preincubated for 10 mins followed by radioligand addition measured after 90 mins by micro beta scintillation counting analysis
- CONDITION SET: read-out: EC50
pEC50: −log10 of the molar value.
MEASURED QUANTITY: pEC50

1. CCCNc1nc(C#Cc2ccc(Cl)s2)nc2c1ncn2[C@H]1[C@H](O)[C@H](O)[C@]2(C(=O)NC)C[C@H]12 ... 5.95
2. CCOC(=O)[C@@]12C[C@@H]1[C@@H](n1cnc3c(NC)nc(C#Cc4ccc(Cl)s4)nc31)[C@H](O)[C@@H]2O ... 7.47
3. CNC(=O)[C@@]12C[C@@H]1[C@@H](n1cnc3c(NC)nc(C#Cc4ccc(F)c(F)c4)nc31)[C@H](O)[C@@H]2O ... 7.15

* * *

- EXPERIMENTAL SYSTEM: Adenosine receptor A3 (Mus musculus)
- Sequence (whole entry): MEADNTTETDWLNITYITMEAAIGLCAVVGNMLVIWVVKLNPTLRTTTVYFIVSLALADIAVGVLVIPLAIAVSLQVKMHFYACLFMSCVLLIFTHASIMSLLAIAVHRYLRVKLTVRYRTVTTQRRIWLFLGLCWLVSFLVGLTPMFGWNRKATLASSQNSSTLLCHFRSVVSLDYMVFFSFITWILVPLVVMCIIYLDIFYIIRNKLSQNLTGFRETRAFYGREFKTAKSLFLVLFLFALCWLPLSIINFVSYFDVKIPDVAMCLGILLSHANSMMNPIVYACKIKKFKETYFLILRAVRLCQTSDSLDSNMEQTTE
- PROTOCOL NOTES: Displacement of [125I]N6-(4-amino-3-iodobenzyl)adenosine-5'-N-methyluronamide from mouse A3AR expressed in HEK293T cells at 10 uM pre-incubated for 10 mins before radioligand addition and measured 90 mins after radioligand addition by micro beta scintillation counting analysis relative to control
- Assay type: cell-based
Readings of inhibition for the listed compounds
MEASURED QUANTITY: inhibition (%)

1. CNc1nc(C#Cc2ccc(Cl)s2)nc2c1ncn2[C@H]1[C@H](O)[C@H](O)[C@]2(C(=O)OCCC3CCCCC3)C[C@H]12 ... 5
2. CCOC(=O)[C@@]12C[C@@H]1[C@@H](n1cnc3c(NC)nc(C#Cc4ccc(Cl)s4)nc31)[C@H](O)[C@@H]2O ... 45
3. CNc1nc(C#Cc2ccc(Cl)s2)nc2c1ncn2[C@H]1[C@H](O)[C@H](O)[C@]2(C(=O)NCCN)C[C@H]12 ... 0
4. CNc1nc(C#Cc2ccc(Cl)s2)nc2c1ncn2[C@H]1[C@H](O)[C@H](O)[C@]2(C(=O)OCc3ccccc3)C[C@H]12 ... 48
5. CNC(=O)[C@@]12C[C@@H]1[C@@H](n1cnc3c(NC)nc(C#Cc4ccc(Cl)s4)cc31)[C@H](O)[C@@H]2O ... 38
6. CNc1nc(C#Cc2ccc(Cl)s2)nc2c1ncn2[C@H]1[C@H](O)[C@H](O)[C@]2(C(=O)OCCC(C)C)C[C@H]12 ... 32
7. CCOC(=O)[C@@]12C[C@@H]1[C@@H](n1cnc3c(NC)nc(C#Cc4ccc(Cl)s4)cc31)[C@H](O)[C@@H]2O ... 18
8. CNc1nc(C#Cc2ccc(Cl)s2)nc2c1ncn2[C@H]1[C@H](O)[C@H](O)[C@]2(C(=O)O)C[C@H]12 ... 0
9. CNc1nc(C#Cc2ccc(Cl)s2)nc2c1ncn2[C@H]1[C@H](O)[C@H](O)[C@]2(C(=O)OC(C)C)C[C@H]12 ... 30
10. CNc1nc(C#Cc2ccc(Br)s2)nc2c1ncn2[C@H]1[C@H](O)[C@H](O)[C@]2(C(=O)OC)C[C@H]12 ... 57
11. CNc1nc(C#Cc2ccc(Cl)s2)nc2c1ncn2[C@H]1[C@H](O)[C@H](O)[C@]2(C(=O)OCCc3ccccc3)C[C@H]12 ... 3
12. CNc1nc(C#Cc2ccc(Cl)s2)nc2c1ncn2[C@H]1[C@H](O)[C@H](O)[C@]2(C(=O)OC)C[C@H]12 ... 36
13. CCCCOC(=O)[C@@]12C[C@@H]1[C@@H](n1cnc3c(NC)nc(C#Cc4ccc(Cl)s4)nc31)[C@H](O)[C@@H]2O ... 54
14. CNc1nc(C#Cc2ccc(Cl)s2)nc2c1ncn2[C@H]1[C@H](O)[C@H](O)[C@]2(C(=O)OCCCc3ccccc3)C[C@H]12 ... 9

* * *

Readings of Ki for the listed compounds
- EXPERIMENTAL SYSTEM: Alpha-2B adrenergic receptor (Homo sapiens, UniProt P18089)
- Sequence (P18089 whole entry): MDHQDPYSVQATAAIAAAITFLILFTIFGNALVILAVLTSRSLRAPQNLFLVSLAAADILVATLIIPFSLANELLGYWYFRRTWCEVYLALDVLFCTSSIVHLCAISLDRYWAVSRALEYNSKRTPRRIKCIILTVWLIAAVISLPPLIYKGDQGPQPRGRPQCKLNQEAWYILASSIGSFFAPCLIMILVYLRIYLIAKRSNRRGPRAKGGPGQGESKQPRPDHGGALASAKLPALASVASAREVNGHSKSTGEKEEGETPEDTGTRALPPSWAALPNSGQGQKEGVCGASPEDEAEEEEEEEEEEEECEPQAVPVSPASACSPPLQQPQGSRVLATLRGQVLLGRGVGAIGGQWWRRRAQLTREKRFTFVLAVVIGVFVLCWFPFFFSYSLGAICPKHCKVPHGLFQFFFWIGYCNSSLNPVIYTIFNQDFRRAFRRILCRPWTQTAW
MEASURED QUANTITY: Ki

1) CCCNc1nc(C#Cc2ccc(Cl)s2)nc2c1ncn2[C@@H]1O[C@H](C(=O)NC)[C@@H](O)[C@H]1O ... 5 to 10 µM
2) CNc1nc(C#Cc2ccc(Cl)s2)nc2c1ncn2[C@@H]1O[C@H](C(=O)OC)[C@@H](O)[C@H]1O ... 5 to 10 µM

* * *

- EXPERIMENTAL SYSTEM: UniProt Q01959
- PROTOCOL NOTES: Inhibition of recombinant human DAT expressed in HEK293 cell […] as reduction in [3H]-DA uptake incubated for 22 mins by micro beta scintillation counting analysis
MEASURED QUANTITY: IC50 (nM)

1) CNc1nc(C#Cc2ccc(Br)s2)nc2c1ncn2[C@H]1[C@H](O)[C@H](O)[C@]2(C(=O)OC)C[C@H]12 ... 246
2) CNc1nc(C#Cc2ccc(Cl)s2)nc2c1ncn2[C@@H]1O[C@H](C(=O)OC)[C@@H](O)[C@H]1O ... 396
3) CNC(=O)[C@@]12C[C@@H]1[C@@H](n1cnc3c(NC)nc(C#Cc4ccc(Cl)s4)cc31)[C@H](O)[C@@H]2O ... 163
4) CNC(=O)[C@@]12C[C@@H]1[C@@H](n1cnc3c(NC)nc(C#Cc4ccc(Br)s4)nc31)[C@H](O)[C@@H]2O ... 229
5) CNC(=O)[C@@]12C[C@@H]1[C@@H](n1cnc3c(NC)nc(C#Cc4ccc(Cl)s4)nc31)[C@H](O)[C@@H]2O ... 253
6) CCCOC(=O)[C@@]12C[C@@H]1[C@@H](n1cnc3c(NC)nc(C#Cc4ccc(Cl)s4)nc31)[C@H](O)[C@@H]2O ... 1140
